Below, each entry is listed alongside its reported folding stability dG unfold.
# protocol summary: folding stability dG unfold from trypsin proteolysis; higher = more stable
value kind: folding stability dG unfold

INSERT INTO measurements (macromolecule_sequence, observed) VALUES
  ('RKIEINIWRNENHWYVRIKLEHPDGKEQELMFPMDSWDEAREFIRGILANLPPNNVKIEDIEIYPPNGQPIS [r1_169_TrROS]', '2.85 kcal/mol'),
  ('SAGGSAKKPKPGRLFLRYEEPEKGEVVEAVLTVYPNNVVELEVRRPDGKPVPLEKALKLLKELGLLSAGGSA [r15_872_TrMRF]', '1.54 kcal/mol'),
  ('SAGGSAGGSADEIPIMIKIKYKNGGKKREHTITFRVEPNMPNLDEFAKELANNGRIEEVEISAGGSAGGSAG [r3_30_TrROS]', '0.629 kcal/mol'),
  ('SAGSGPGETKLVEEVEIDPVGPIKDSNGNPRPIKVVTKKLVEVTILEDGTVEKKVLETVVETLPPDVPLSAG [r5_132_JUSTAS]', '-0.498 kcal/mol');
